variants and their reported protein stability index
B1: APBB1IP (parent)
chain: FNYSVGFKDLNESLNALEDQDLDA

- Variants of: B1
- experimentDescription: protein stability index of a GFP-peptide fusion (GPS, HEK-293T) (PSI 1-6); higher = more stable;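 note: lentivirally expressed fusions sorted by FACS into six bins by GFP to DsRed ratio, PSI derived from sequencing read proportions per bin multiplied by bin number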
- condition: c terminus: a fixed tail appended
quantityMeasured: protein stability index

>>> readoutvalue("F1T")
5.35
>>> readoutvalue("V5T")
4.96
>>> readoutvalue("N15Y")
3.62
>>> readoutvalue("N15W")
2.92
>>> readoutvalue("Y3A")
5.06
>>> readoutvalue("A24M")
3.85
>>> readoutvalue("D9L")
3.09
>>> readoutvalue("D23K")
3.87
>>> readoutvalue("G6M")
3.12
>>> readoutvalue("L17I")
4.68
>>> readoutvalue("G6D")
4.85
>>> readoutvalue("K8Q")
4.72
>>> readoutvalue("D23Q")
4.22
>>> readoutvalue("F7R")
5.71
>>> readoutvalue("F7K")
5.18
>>> readoutvalue("L14P")
4.76
>>> readoutvalue("E12Q")
4.28
>>> readoutvalue("A16C")
4.47
>>> readoutvalue("S13P")
4.41
>>> readoutvalue("S4F")
3.24
>>> readoutvalue("D21V")
3.38
>>> readoutvalue("L10I")
4.26
>>> readoutvalue("F7V")
4.92
>>> readoutvalue("L17R")
5.01
>>> readoutvalue("A24K")
4.81
>>> readoutvalue("L22F")
4.49
>>> readoutvalue("N15S")
4.15
>>> readoutvalue("F1L")
4.7
>>> readoutvalue("A16V")
3.47
>>> readoutvalue("N15A")
4.44
>>> readoutvalue("G6C")
3
>>> readoutvalue("L14A")
4.71
>>> readoutvalue("D19H")
3.7
>>> readoutvalue("E12C")
2.82
>>> readoutvalue("D9Q")
4.22
>>> readoutvalue("D9K")
4.19
>>> readoutvalue("D21H")
3.33
>>> readoutvalue("N11Q")
4.38
>>> readoutvalue("Y3W")
3.87
>>> readoutvalue("N2M")
1.99
>>> readoutvalue("V5M")
4.51
>>> readoutvalue("D21I")
2.81
>>> readoutvalue("D23L")
3.14
>>> readoutvalue("D21Q")
3.75
>>> readoutvalue("S4D")
5.11
>>> readoutvalue("N2T")
2.23
